Measured MIC, listed per entry for reference.
Test system: Pseudomonas syringae pv. tomato DC3000
MEASUREMENT_PROTOCOL: ≥ marks a high value that may be exact or a test limit, other limits are often not marked, values filed in µg/mL are converted to µM
Give your result in µM as a bare value.

Here is how some compounds turned out for MIC.
COMPOUND	TARGET_SYSTEM	UNIT_ANNOTATION	MIC
CC[C@H](C)[C@H](NC(=O)[C@@H](NC(=O)[C@H](CCCCN)NC(=O)[C@H](CCCCN)NC(=O)[C@@H](NC(=O)[C@@H](NC(=O)[C@H](CCCCN)NC(=O)[C@H](CCCCN)NC(=O)[C@H](CCCCN)NC(=O)[C@H](CCCCN)NC(=O)[C@H](CCCCN)NC(=O)[C@@H](N)CCCCN)[C@@H](C)CC)[C@@H](C)CC)[C@@H](C)CC)C(N)=O [KKKKKKIIKKII]	Pseudomonas syringae pv. tomato DC3000	µM	0.668
CC(C)C[C@H](NC(=O)[C@H](CC(C)C)NC(=O)[C@H](CCCCN)NC(=O)[C@H](CCCCN)NC(=O)[C@H](CC(C)C)NC(=O)[C@H](CC(C)C)NC(=O)[C@H](CCCCN)NC(=O)[C@H](CCCCN)NC(=O)[C@H](CC(C)C)NC(=O)[C@H](C)NC(=O)[C@H](CCCCN)NC(=O)[C@H](CC(C)C)NC(=O)[C@@H](N)CC(C)C)C(N)=O [LLKALKKLLKKLL]	Pseudomonas syringae pv. tomato DC3000	µM	6.57
CC[C@H](C)[C@H](NC(=O)[C@H](CC(C)C)NC(=O)[C@H](CCCN=C(N)N)NC(=O)[C@H](CCCCN)NC(=O)[C@@H](NC(=O)[C@@H](NC(=O)[C@H](CCCCN)NC(=O)[C@H](CCCCN)NC(=O)[C@H](CCCCN)NC(=O)[C@@H](N)CCCCN)[C@@H](C)CC)[C@@H](C)CC)C(N)=O [KKKKIIKRLI]	Pseudomonas syringae pv. tomato DC3000	µM	0.789
CC[C@H](C)[C@H](NC(=O)[C@@H](NC(=O)CNC(=O)[C@H](C)NC(=O)[C@H](CCSC)NC(=O)[C@@H](NC(=O)CNC(=O)[C@H](Cc1ccccc1)NC(=O)[C@@H](NC(=O)[C@H](CC(C)C)NC(=O)[C@@H](NC(=O)[C@H](CC(C)C)NC(=O)[C@H](CCCCN)NC(=O)[C@H](CCCN=C(N)N)NC(=O)[C@@H](N)CCCCN)[C@@H](C)O)C(C)C)C(C)C)C(C)C)C(=O)NCC(=O)N[C@H](C(=O)N[C@@H](CCCCN)C(=O)N[C@@H](CCCCN)C(=O)N[C@@H](CCCN=C(N)N)C(N)=O)[C@@H](C)O [KRKLTLVFGVMAGVIGTKKR]	Pseudomonas syringae pv. tomato DC3000	µM	18.2

For the next question, use this compound.
Retrieve MIC measured for CC(C)C[C@H](NC(=O)[C@H](CC(C)C)NC(=O)[C@H](CCCCN)NC(=O)[C@@H](NC(=O)[C@H](CCCN=C(N)N)NC(=O)[C@H](CCCCN)NC(=O)[C@H](CCCCN)NC(=O)[C@@H](N)CCCN=C(N)N)C(C)C)C(=O)N[C@@H](CCCCN)C(=O)N[C@@H](CCCN=C(N)N)C(=O)N[C@@H](CC(C)C)C(=O)N[C@H](C(N)=O)C(C)C [RKKRVKLLKRLV] and print it.
3.25
